Tested on: CEM cells HIV-1 protection, formazan growth assay
protocol.summary: NCI AIDS Antiviral Assay;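 active means compounds giving half or more protection of infected cells from virus-caused growth loss, again on retest; inactive means the rest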
Outcomes: active, inactive

{"molecule": "CCOP(=O)(OCC)/C(C#N)=C/c1cccc(C)c1", "assigned.label": "inactive"}
{"molecule": "O=c1[nH]c(=S)c2cncnc2n1C1OC(CO)C(O)C1O (stereo not drawn)", "assigned.label": "inactive"}
{"molecule": "c1ccc(C2=Nc3ccccc3N=C(c3ccccc3)C2)cc1", "assigned.label": "inactive"}
{"molecule": "Cc1nc2[nH]ncn2c(=O)c1CCO", "assigned.label": "inactive"}
{"molecule": "Cc1ccc(S(=O)(=O)N/C(=C\\C=C\\c2ccccc2)C(=O)C(C)(C)C)cc1", "assigned.label": "active"}
{"molecule": "COc1ccc(/C(C)=N/NC(=S)N(C)C)c(O)c1", "assigned.label": "inactive"}
{"molecule": "CC1(C)Oc2ccc(C3=NO[C@@H]4C(=O)N(c5ccc(Cc6ccc(N7C(=O)[C@H]8C(c9ccc%10c(c9)OC(C)(C)O%10)=NO[C@H]8C7=O)cc6)cc5)C(=O)[C@H]34)cc2O1", "assigned.label": "inactive"}
{"molecule": "CCOC(=O)C1=NN(c2ccccc2)C(=O)/C1=C\\n1c(=S)sc2ccccc21", "assigned.label": "inactive"}
{"molecule": "COc1cccc(C2(C#N)CCN(C)CC2)c1", "assigned.label": "inactive"}
{"molecule": "NC(CSS(=O)(=O)O)=NCc1ccccc1", "assigned.label": "inactive"}
{"molecule": "COc1ccc(C(=O)/C=C/c2ccc(OCCCOc3ccc(/C=C/C(=O)c4ccc(OC)c(OC)c4)cc3)cc2)cc1OC", "assigned.label": "inactive"}
{"molecule": "NNC(=O)CC(=O)Nc1ccccc1F", "assigned.label": "inactive"}
{"molecule": "CNn1c(-c2ccccc2)n[nH]c1=O", "assigned.label": "active"}
{"molecule": "CC(C)(C)OC(=O)c1ccc(NCC2=C(Br)C(=O)C=CC2=O)cc1", "assigned.label": "inactive"}
{"molecule": "CN1CCC2(CC1)N=C1CCN(C)CC1S2 (stereo not drawn)", "assigned.label": "inactive"}
{"molecule": "COc1cc2c(=O)c3ccccc3oc2c(O)c1OC", "assigned.label": "inactive"}
{"molecule": "O=P1(c2ccccc2)c2ccccc2CCc2ccccc21", "assigned.label": "inactive"}
{"molecule": "COc1ccc(NC(=O)/C(=N\\NC(=O)C[n+]2ccccc2)c2c(O)c3ccc(O)cc3oc2=O)c([N+](=O)[O-])c1", "assigned.label": "inactive"}
{"molecule": "CCc1cccc(C(C)CC)c1NC(=O)CC1C(=O)Nc2ccccc2S1(=O)=O (stereo not drawn)", "assigned.label": "inactive"}
{"molecule": "c1ccc(C2=Nc3nc4ccccc4n3C(c3ccccc3)C2)cc1 (stereo not drawn)", "assigned.label": "inactive"}
{"molecule": "O=C(O)c1ccc2c(c1)CC1(C2)Cc2cc3c(cc2C1=O)CCC3 (stereo not drawn)", "assigned.label": "inactive"}
{"molecule": "Cc1n[nH]c(=O)c2cc3oc4ccccc4c3n12", "assigned.label": "inactive"}
{"molecule": "CSc1nc2c(N)ncnc2n1C", "assigned.label": "inactive"}
{"molecule": "C1=Nc2ccc(cc2)-c2ccc(cc2)N=Cc2ccc(cc2)OCc2cccc(n2)COc2ccc1cc2", "assigned.label": "inactive"}
{"molecule": "NC1=NN(O)C2=CC([N+](=O)[O-])C=CC2=N1 (stereo not drawn)", "assigned.label": "inactive"}
{"molecule": "Cc1ccc(-c2nc(SCC(=O)O)n[nH]2)cc1", "assigned.label": "inactive"}
{"molecule": "Cc1cc(C)nc(NC(P(=O)(O)O)P(=O)(O)O)n1", "assigned.label": "inactive"}
{"molecule": "CCN(CC)CCNc1nc2c([nH]1)c(=O)n(C)c(=O)n2C", "assigned.label": "inactive"}
{"molecule": "Fc1ccc2nncc(SCc3ccccc3)c2c1", "assigned.label": "inactive"}
{"molecule": "N=S(c1ccccc1)c1ccccc1[N+](=O)[O-] (stereo not drawn)", "assigned.label": "inactive"}
{"molecule": "NCCCCC(N)C(=O)NCCNc1ccc(NCCNC(=O)C(N)CCCCN)c2c1C(=O)c1ccccc1C2=O (stereo not drawn)", "assigned.label": "inactive"}
{"molecule": "CN1CCN(CCCCN2c3ccccc3Sc3ccc(N=[N+]=[N-])cc32)CC1", "assigned.label": "inactive"}
{"molecule": "O=C1c2ccccc2C(=O)N1C/C=N/NS(=O)(=O)c1cccc([N+](=O)[O-])c1", "assigned.label": "inactive"}
